Parameter: IC50. Scope: all listed entries.
targetOrTestSystem: G9a (Homo sapiens, UniProt Q96KQ7)
Sequence (Q96KQ7 1-1210): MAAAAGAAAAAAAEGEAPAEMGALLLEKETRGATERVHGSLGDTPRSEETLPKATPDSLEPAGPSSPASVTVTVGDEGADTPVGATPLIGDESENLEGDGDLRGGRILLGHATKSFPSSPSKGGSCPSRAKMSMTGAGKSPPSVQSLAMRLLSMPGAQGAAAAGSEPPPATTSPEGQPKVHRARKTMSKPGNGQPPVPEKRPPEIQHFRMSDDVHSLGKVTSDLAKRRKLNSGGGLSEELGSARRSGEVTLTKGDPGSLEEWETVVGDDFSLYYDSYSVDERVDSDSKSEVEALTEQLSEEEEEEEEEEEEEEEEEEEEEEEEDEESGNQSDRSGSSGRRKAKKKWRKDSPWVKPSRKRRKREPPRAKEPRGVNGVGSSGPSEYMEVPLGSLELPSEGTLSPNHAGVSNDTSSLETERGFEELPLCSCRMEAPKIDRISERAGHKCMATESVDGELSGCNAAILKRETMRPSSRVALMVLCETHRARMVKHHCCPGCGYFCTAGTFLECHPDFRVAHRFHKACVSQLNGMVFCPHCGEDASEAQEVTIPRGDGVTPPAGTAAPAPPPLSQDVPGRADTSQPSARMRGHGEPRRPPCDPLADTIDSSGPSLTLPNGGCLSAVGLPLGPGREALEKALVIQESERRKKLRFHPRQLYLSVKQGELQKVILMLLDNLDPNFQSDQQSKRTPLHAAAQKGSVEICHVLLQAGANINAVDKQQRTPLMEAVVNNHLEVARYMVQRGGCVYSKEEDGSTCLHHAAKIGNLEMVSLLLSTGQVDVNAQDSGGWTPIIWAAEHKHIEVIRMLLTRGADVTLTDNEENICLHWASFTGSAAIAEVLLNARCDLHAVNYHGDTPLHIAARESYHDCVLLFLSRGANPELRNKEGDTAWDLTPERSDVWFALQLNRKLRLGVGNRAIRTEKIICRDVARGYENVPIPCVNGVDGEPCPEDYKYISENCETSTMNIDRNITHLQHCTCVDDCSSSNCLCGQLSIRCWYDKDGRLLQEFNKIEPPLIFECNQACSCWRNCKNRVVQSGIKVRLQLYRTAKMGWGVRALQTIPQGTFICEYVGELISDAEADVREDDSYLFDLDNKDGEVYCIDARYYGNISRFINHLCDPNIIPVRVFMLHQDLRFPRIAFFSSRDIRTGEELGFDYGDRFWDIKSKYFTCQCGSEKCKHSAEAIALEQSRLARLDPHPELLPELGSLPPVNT
Where a name gives a salt, the structure may show the parent alone.
quantityName: IC50 (nM)

[[record]]
compound = "COc1cc2c(cc1OCCCN(C)C)[nH]c1ccnc(C#CC(C)(C)O)c12 [Compound 48, hydrochloride]"
resultunits = "nM"
quantitativereadout = 1300

[[record]]
compound = "CCCc1nccc2[nH]c3cc(OCCCN(C)C)c(OC)cc3c12 [Compound 55, hydrochloride]"
resultunits = "nM"
quantitativereadout = 18

[[record]]
compound = "C#Cc1nccc2[nH]c3cc(OCCCN(C)C)c(OC)cc3c12 [Compound 59, hydrochloride]"
resultunits = "nM"
quantitativereadout = 160

[[record]]
compound = "COc1cc2c(cc1OCCCN(C)C)[nH]c1ccnc(N(C)C)c12 [Compound 93, hydrochloride]"
resultunits = "nM"
quantitativereadout = 61

[[record]]
compound = "COc1cc2c(cc1OCCCN1CCCC1)[nH]c1cc(CO)ncc12 [Compound 79, trifluoroacetate]"
resultunits = "nM"
quantitativereadout = 140

[[record]]
compound = "COc1cc2c(cc1OCCCN1CCCC1)[nH]c1ncncc12 [Compound 22]"
resultunits = "nM"
quantitativereadout = 570

[[record]]
compound = "COc1cc2c(cc1OCCCN1CCCC1)[nH]c1ccnc(-n3ccnc3)c12 [Compound 76, trifluoroacetate]"
resultunits = "nM"
quantitativereadout = 960

[[record]]
compound = "COc1cc2c(cc1OCCCN1CCCC1)[nH]c1ccnc(O)c12 [Compound 97, trifluoroacetate]"
resultunits = "nM"
quantitativereadout = 68

[[record]]
compound = "COc1cc2c(cc1OCCCN1CCCC1)[nH]c1cccnc12 [Compound 27, hydrochloride]"
resultunits = "nM"
quantitativereadout = 150

[[record]]
compound = "CCN(C)CCCOc1cc2[nH]c3ccncc3c2cc1OC [Compound 45, hydrochloride]"
resultunits = "nM"
quantitativereadout = 56

[[record]]
compound = "COc1cc2c(cc1OCCCN1CCCC1C)[nH]c1ccnc(C3CC3)c12 (stereo not shown) [Compound 60, hydrochloride]"
resultunits = "nM"
quantitativereadout = 51

[[record]]
compound = "COc1cc2c(cc1OCCCN(C)C)[nH]c1ccnc(C3CCCC3)c12 [Compound 56, hydrochloride]"
resultunits = "nM"
quantitativereadout = 15

[[record]]
compound = "COc1cc2c(cc1OCCCN(C)C)[nH]c1ccnc(C#CC3CC3)c12 [Compound 51, hydrochloride]"
resultunits = "nM"
quantitativereadout = 470

[[record]]
compound = "COc1cc2c(cc1OCCCN1CCCC1)[nH]c1cc(C)ncc12 [Compound 99, hydrochloride]"
resultunits = "nM"
quantitativereadout = 16

[[record]]
compound = "COc1cc2c(cc1OCCCN(C)C)[nH]c1ccnc(C#CC(C)O)c12 (stereo not shown) [Compound 50, hydrochloride]"
resultunits = "nM"
quantitativereadout = 690

[[record]]
compound = "COc1cc2c(cc1OCCCN1CCCC1)[nH]c1ccnc(C3CC3)c12 [Compound 43]"
resultunits = "nM"
quantitativereadout = 1.3

